Reference source for all entries: ChEMBL document CHEMBL1149790

Test system: Human respirovirus 3
runDescription: Antiviral activity against Parainfluenza 3 virus in african green monkey Vero cells assessed as reduction of virus-induced cytopathogenicity
Assay type: functional
Kindly state MIC for each of the entries shown.

## Input Consider the compound shown here: NC(=O)c1ncn([C@@H]2O[C@H](CO)[C@@H](O)[C@H]2O)n1 What is its recorded MIC?
## Output 48 µg/mL

## Input Next record, please: C=CCn1c(-c2ccc(NC(=S)Nc3ccccc3)cc2)n[nH]c1=S
## Output > 16 µg/mL

## Input Next record, please: S=C(Nc1ccc(Cl)cc1)Nc1ccc(-c2n[nH]c(=S)n2-c2ccccc2)cc1
## Output > 16 µg/mL

## Input Next record, please: Nc1ncnc2c1ncn2C[C@H](O)CO [(S)-DHPA]
## Output > 400 µg/mL

## Input Next record, please: C=CCn1c(COc2ccc(NC(=S)NCC)cc2)n[nH]c1=S
## Output > 80 µg/mL

## Input Next record, please: CCn1c(COc2ccc(NC(=S)NC)cc2)n[nH]c1=S
## Output > 80 µg/mL

## Input Next record, please: Nc1ccc(OCc2n[nH]c(=S)n2-c2ccccc2)cc1
## Output > 80 µg/mL

## Input Next record, please: C=CCn1c(COc2ccc(N)cc2)n[nH]c1=S
## Output > 80 µg/mL

## Input Next record, please: CCNC(=S)Nc1ccc(-c2n[nH]c(=S)n2C)cc1
## Output > 80 µg/mL

## Input Next record, please: C=CCNC(=S)Nc1ccc(-c2n[nH]c(=S)n2C)cc1
## Output > 80 µg/mL

## Input Next record, please: Cn1c(COc2ccc(NC(=S)Nc3ccccc3)cc2)n[nH]c1=S
## Output > 80 µg/mL

----------
Kindly state MIC for each of the entries shown.
Tested on: Human alphaherpesvirus 1
runDescription: Antiviral activity against HSV1 KOS in human HEL cells assessed as reduction of virus-induced cytopathogenicity
Format: functional
cond: Human alphaherpesvirus 1, KOS

## Input Consider the molecule shown here: C=CCNC(=S)Nc1ccc(OCc2n[nH]c(=S)n2-c2ccccc2)cc1 What is its recorded MIC?
## Output 240 mg/L

## Input Next record, please: CCCCCCNC(=S)Nc1ccc(-c2n[nH]c(=S)n2CCCCCC)cc1
## Output > 3.2 mg/L

## Input Next record, please: CCNC(=S)Nc1ccc(-c2n[nH]c(=S)n2-c2ccccc2)cc1
## Output > 3.2 mg/L

## Input Next record, please: C=CCn1c(COc2ccc(NC(=S)NCC)cc2)n[nH]c1=S
## Output > 400 mg/L

## Input Next record, please: C=CCn1c(COc2ccc(N)cc2)n[nH]c1=S
## Output > 400 mg/L

## Input Next record, please: CCNC(=S)Nc1ccc(OCc2n[nH]c(=S)n2C)cc1
## Output > 400 mg/L

## Input Next record, please: NC(=O)c1ncn([C@@H]2O[C@H](CO)[C@@H](O)[C@H]2O)n1 [RIBAVIRIN]
## Output 9.6 mg/L

## Input Next record, please: C=CCNC(=S)Nc1ccc(-c2n[nH]c(=S)n2-c2ccccc2)cc1
## Output > 80 mg/L

## Input Next record, please: CCn1c(COc2ccc(NC(=S)NC)cc2)n[nH]c1=S
## Output > 400 mg/L

## Input Next record, please: Cn1c(-c2ccc(NC(=S)Nc3ccccc3)cc2)n[nH]c1=S
## Output > 80 mg/L

## Input Next record, please: Nc1ccc(OCc2n[nH]c(=S)n2-c2ccccc2)cc1
## Output > 400 mg/L

## Input Next record, please: C=CCNC(=S)Nc1ccc(-c2n[nH]c(=S)n2CC=C)cc1
## Output > 80 mg/L

## Input Next record, please: C=CCNC(=S)Nc1ccc(OCc2n[nH]c(=S)n2C)cc1
## Output > 400 mg/L

## Input Next record, please: CCNC(=S)Nc1ccc(OCc2n[nH]c(=S)n2-c2ccccc2)cc1
## Output > 400 mg/L

## Input Next record, please: C=CCNC(=S)Nc1ccc(OCc2n[nH]c(=S)n2CC)cc1
## Output > 400 mg/L

## Input Next record, please: C=CCNC(=S)Nc1ccc(-c2n[nH]c(=S)n2C)cc1
## Output 240 mg/L

## Input Next record, please: C=CCn1c(-c2ccc(NC(=S)NC)cc2)n[nH]c1=S
## Output 240 mg/L

## Input Next record, please: CCNC(=S)Nc1ccc(OCc2n[nH]c(=S)n2CC)cc1
## Output > 400 mg/L

## Input Next record, please: CNC(=S)Nc1ccc(-c2nnc(SCc3ccccc3)n2C)cc1
## Output > 16 mg/L

## Input Next record, please: CNC(=S)Nc1ccc(-c2n[nH]c(=S)n2C)cc1
## Output 240 mg/L

## Input Next record, please: CCNC(=S)Nc1ccc(-c2n[nH]c(=S)n2C)cc1
## Output 240 mg/L

## Input Next record, please: C=CCNC(=S)Nc1ccc(-c2n[nH]c(=S)n2CC)cc1
## Output 240 mg/L

## Input Next record, please: C=CCNC(=S)Nc1ccc(-c2n[nH]c(=S)n2CCCCCC)cc1
## Output > 16 mg/L

## Input Next record, please: CCCCCCNC(=S)Nc1ccc(-c2n[nH]c(=S)n2C)cc1
## Output 48 mg/L

----------
Kindly state MIC for each of the entries shown.
System: Punta Toro virus
runDescription: Antiviral activity against Punta Toro virus in african green monkey Vero cells assessed as reduction of virus-induced cytopathogenicity
Assay type: functional

## Input Item CNC(=S)Nc1ccc(-c2nnc(SCc3ccccc3)n2C)cc1 with Punta Toro virus - MIC?
## Output > 16 µg/mL

## Input Next record, please: CNC(=S)Nc1ccc(-c2n[nH]c(=S)n2C)cc1
## Output > 80 µg/mL

## Input Next record, please: C=CCNC(=S)Nc1ccc(-c2nnc(SCc3ccc(Cl)cc3Cl)n2C)cc1
## Output > 16 µg/mL

## Input Next record, please: CCCCCCNC(=S)Nc1ccc(-c2n[nH]c(=S)n2CCCCCC)cc1
## Output > 3.2 µg/mL

## Input Next record, please: CNC(=S)Nc1ccc(OCc2n[nH]c(=S)n2C)cc1
## Output > 80 µg/mL

## Input Next record, please: C=CCNC(=S)Nc1ccc(-c2n[nH]c(=S)n2CC)cc1
## Output 80 µg/mL

## Input Next record, please: C=CCNC(=S)Nc1ccc(-c2n[nH]c(=S)n2CC=C)cc1
## Output > 80 µg/mL

## Input Next record, please: C=CCNC(=S)Nc1ccc(OCc2n[nH]c(=S)n2CC=C)cc1
## Output > 80 µg/mL

## Input Next record, please: CCn1c(COc2ccc(NC(=S)Nc3ccccc3)cc2)n[nH]c1=S
## Output > 80 µg/mL

## Input Next record, please: CCNC(=S)Nc1ccc(OCc2n[nH]c(=S)n2CC)cc1
## Output > 80 µg/mL

## Input Next record, please: NC(=O)c1ncn([C@@H]2O[C@H](CO)[C@@H](O)[C@H]2O)n1 [RIBAVIRIN]
## Output 48 µg/mL

----------
System: Punta Toro virus
runDescription: Antiviral activity against Punta Toro virus in african green monkey Vero cells assessed as reduction of virus-induced cytopathogenicity
Assay type: functional
experimentalReadout: MIC

## Input Item C=CCNC(=S)Nc1ccc(-c2nnc(SCc3ccc(Cl)cc3Cl)n2-c2ccccc2)cc1 with Punta Toro virus - MIC?
## Output > 16 µg/mL

## Input Next record, please: Nc1ncnc2c1ncn2C[C@H](O)CO [(S)-DHPA]
## Output > 400 µg/mL

## Input Next record, please: Cn1c(COc2ccc(N)cc2)n[nH]c1=S
## Output > 3.2 µg/mL

## Input Next record, please: CCNC(=S)Nc1ccc(OCc2n[nH]c(=S)n2C)cc1
## Output > 80 µg/mL

## Input Next record, please: C=CCNC(=S)Nc1ccc(-c2n[nH]c(=S)n2C)cc1
## Output > 80 µg/mL

## Input Next record, please: C=CCn1c(COc2ccc(NC(=S)NC)cc2)n[nH]c1=S
## Output > 80 µg/mL

## Input Next record, please: CNC(=S)Nc1ccc(OCc2n[nH]c(=S)n2-c2ccccc2)cc1
## Output > 80 µg/mL

## Input Next record, please: C=CCn1c(-c2ccc(NC(=S)Nc3ccccc3)cc2)n[nH]c1=S
## Output > 16 µg/mL

## Input Next record, please: C=CCn1c(-c2ccc(NC(=S)NC)cc2)n[nH]c1=S
## Output > 80 µg/mL

## Input Next record, please: C=CCNC(=S)Nc1ccc(OCc2n[nH]c(=S)n2-c2ccccc2)cc1
## Output > 80 µg/mL

## Input Next record, please: S=C(Nc1ccc(Cl)cc1)Nc1ccc(-c2n[nH]c(=S)n2-c2ccccc2)cc1
## Output > 16 µg/mL

## Input Next record, please: C=CCn1c(COc2ccc(N)cc2)n[nH]c1=S
## Output > 80 µg/mL

## Input Next record, please: C=CCNC(=S)Nc1ccc(-c2n[nH]c(=S)n2CCc2ccccc2)cc1
## Output > 80 µg/mL

## Input Next record, please: CCn1c(COc2ccc(N)cc2)n[nH]c1=S
## Output > 16 µg/mL

## Input Next record, please: O=c1[nH]c(=O)n([C@H]2C[C@H](O)[C@@H](CO)O2)cc1/C=C/Br
## Output > 400 µg/mL

## Input Next record, please: CCCCCCNC(=S)Nc1ccc(-c2n[nH]c(=S)n2-c2ccccc2)cc1
## Output > 80 µg/mL

## Input Next record, please: C=CCNC(=S)Nc1ccc(OCc2n[nH]c(=S)n2C)cc1
## Output > 80 µg/mL

## Input Next record, please: C=CCNC(=S)Nc1ccc(OCc2n[nH]c(=S)n2CC)cc1
## Output > 80 µg/mL

## Input Next record, please: CCn1c(COc2ccc(NC(=S)NC)cc2)n[nH]c1=S
## Output > 80 µg/mL

## Input Next record, please: S=C(Nc1ccccc1)Nc1ccc(OCc2n[nH]c(=S)n2-c2ccccc2)cc1
## Output > 16 µg/mL

## Input Next record, please: C=CCn1c(COc2ccc(NC(=S)NCC)cc2)n[nH]c1=S
## Output > 80 µg/mL

## Input Next record, please: C=CCNC(=S)Nc1ccc(-c2n[nH]c(=S)n2-c2ccccc2)cc1
## Output > 400 µg/mL

## Input Next record, please: Nc1ccc(OCc2n[nH]c(=S)n2-c2ccccc2)cc1
## Output > 80 µg/mL

## Input Next record, please: S=C(Nc1ccccc1)Nc1ccc(-c2n[nH]c(=S)n2-c2ccccc2)cc1
## Output > 16 µg/mL

## Input Next record, please: CCNC(=S)Nc1ccc(-c2n[nH]c(=S)n2-c2ccccc2)cc1
## Output > 80 µg/mL

## Input Next record, please: C=CCn1c(COc2ccc(NC(=S)Nc3ccccc3)cc2)n[nH]c1=S
## Output > 16 µg/mL

## Input Next record, please: C=CCNC(=S)Nc1ccc(-c2n[nH]c(=S)n2CCCCCC)cc1
## Output > 16 µg/mL

## Input Next record, please: CCCCCCNC(=S)Nc1ccc(-c2n[nH]c(=S)n2CC)cc1
## Output > 80 µg/mL

## Input Next record, please: Cn1c(-c2ccc(NC(=S)Nc3ccccc3)cc2)n[nH]c1=S
## Output > 80 µg/mL

## Input Next record, please: CCNC(=S)Nc1ccc(-c2n[nH]c(=S)n2C)cc1
## Output > 80 µg/mL

## Input Next record, please: CCNC(=S)Nc1ccc(OCc2n[nH]c(=S)n2-c2ccccc2)cc1
## Output > 80 µg/mL

## Input Next record, please: CNC(=S)Nc1ccc(-c2n[nH]c(=S)n2-c2ccccc2)cc1
## Output > 80 µg/mL

## Input Next record, please: CCCCCCNC(=S)Nc1ccc(-c2n[nH]c(=S)n2C)cc1
## Output > 16 µg/mL

## Input Next record, please: Cn1c(COc2ccc(NC(=S)Nc3ccccc3)cc2)n[nH]c1=S
## Output > 80 µg/mL
